biological target: various mutants of kinase EGFR (BaF3 cell lines stably transfected with kinase) (Homo sapiens, UniProt P00533, T790M/C797S, form not given); construct: other: BaF3 cells stably transfected with EGFR Δ19Del/T790M/C797S; MTS, 48; other: BaF3 cell line stably transfected with EGFR Δ19Del/T790M/C7; experiment: Growth inhibitory activity of compounds on BaF3 cell lines stably transfected with kinase (MTS, 48 h); type: cell-based; settings: BaF3 cells stably transfected with EGFR Δ19Del/T790M/C797S, read-out: IC50, growth inhibition, Δ19Del/T790M/C797S
Sequence (P00533 with tags, fused parts or gaps DEL746-750/T790M/C797S, form open): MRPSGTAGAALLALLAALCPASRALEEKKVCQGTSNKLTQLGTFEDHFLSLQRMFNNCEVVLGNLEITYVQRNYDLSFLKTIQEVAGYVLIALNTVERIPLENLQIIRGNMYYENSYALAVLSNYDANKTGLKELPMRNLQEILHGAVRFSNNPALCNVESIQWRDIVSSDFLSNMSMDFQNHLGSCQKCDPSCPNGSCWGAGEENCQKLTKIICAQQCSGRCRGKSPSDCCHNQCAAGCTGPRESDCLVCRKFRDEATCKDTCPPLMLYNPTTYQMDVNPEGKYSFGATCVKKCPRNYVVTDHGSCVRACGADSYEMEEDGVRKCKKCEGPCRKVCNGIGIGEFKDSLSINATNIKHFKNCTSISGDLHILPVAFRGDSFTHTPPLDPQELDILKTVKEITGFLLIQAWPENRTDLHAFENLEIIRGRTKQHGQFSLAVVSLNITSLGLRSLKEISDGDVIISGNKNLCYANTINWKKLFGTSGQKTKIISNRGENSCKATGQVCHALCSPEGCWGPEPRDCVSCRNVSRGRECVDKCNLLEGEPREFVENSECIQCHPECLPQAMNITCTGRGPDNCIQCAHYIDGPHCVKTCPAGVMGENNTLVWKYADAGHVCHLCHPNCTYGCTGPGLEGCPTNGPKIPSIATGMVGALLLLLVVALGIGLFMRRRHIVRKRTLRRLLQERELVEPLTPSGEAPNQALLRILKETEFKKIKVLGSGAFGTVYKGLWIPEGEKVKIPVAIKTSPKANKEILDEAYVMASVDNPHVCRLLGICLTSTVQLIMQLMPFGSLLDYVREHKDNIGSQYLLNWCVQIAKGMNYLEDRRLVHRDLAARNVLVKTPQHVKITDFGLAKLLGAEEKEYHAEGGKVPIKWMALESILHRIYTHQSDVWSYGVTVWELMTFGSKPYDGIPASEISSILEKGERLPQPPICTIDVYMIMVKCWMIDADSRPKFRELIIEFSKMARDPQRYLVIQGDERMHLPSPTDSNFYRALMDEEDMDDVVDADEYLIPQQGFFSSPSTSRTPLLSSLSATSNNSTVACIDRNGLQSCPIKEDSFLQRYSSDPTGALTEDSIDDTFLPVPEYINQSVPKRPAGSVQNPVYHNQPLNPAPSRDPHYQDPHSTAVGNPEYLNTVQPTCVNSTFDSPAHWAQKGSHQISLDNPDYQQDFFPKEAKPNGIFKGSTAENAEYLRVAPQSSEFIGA
pIC50: −log10 of the molar value.
readout: pIC50

Worked examples, 10 compounds total:
1. COc1ccc(C(=O)N2CCN(C)CC2)cc1Nc1ncc(Br)c(Nc2ccc3nccnc3c2N(C)S(C)(=O)=O)n1: 5.60 to 6.30
2. CN1CCN(c2ccc(Nc3ncc(Br)c(Nc4ccc5nccnc5c4N(C)S(C)(=O)=O)n3)cc2)CC1: ≥ 7.30
3. CN1CCN(Cc2cc(Nc3ncc(Br)c(Nc4ccc5nccnc5c4N(C)S(C)(=O)=O)n3)cc(C(F)(F)F)c2)CC1: 6.30 to 7.30
4. COc1cc(N2CCC(N3CCN(C)CC3)CC2)c(C2CC2)cc1Nc1ncc(Cl)c(Nc2ccc3nccnc3c2N(C)S(C)(=O)=O)n1: ≥ 7.30
5. CCc1cc(Nc2ncc(Br)c(Nc3ccc4nccnc4c3N(C)S(C)(=O)=O)n2)c(OC)cc1N1CCN(C)CC1: ≥ 7.30
6. CCc1cc(Nc2ncc(Br)c(Nc3ccc4nccnc4c3N(C3CC3)S(C)(=O)=O)n2)c(OC)cc1N1CCC(N2CCN(C)CC2)CC1: ≥ 7.30
7. COc1nc(N2CCC(N3CCN(C)CC3)CC2)ccc1Nc1ncc(C(F)(F)F)c(Nc2ccc3nccnc3c2N(C)S(C)(=O)=O)n1: ≥ 7.30
8. COc1cc(N2CCN(C)CC2)c(C)cc1Nc1ncc(Cl)c(Nc2ccc3nccnc3c2N(C)S(=O)(=O)C(F)(F)F)n1: 5.60 to 6.30
9. COc1cc(N2CCC(N3CCN(C)CC3)CC2)ccc1Nc1ncc(Br)c(Nc2ccc3nccnc3c2N(C)S(=O)(=O)C2CC2)n1: ≥ 7.30
10. COc1cc(N2CCC(N(C)C)CC2)c(C)cc1Nc1ncc(Cl)c(Nc2ccc3nccnc3c2N(C2CC2)S(C)(=O)=O)n1: 6.30 to 7.30

Query: May I ask what pIC50 has been recorded for CCc1cc(Nc2ncc(C3CC3)c(Nc3ccc4nccnc4c3N(C)S(C)(=O)=O)n2)c(OC)cc1N1CCC(N(C)C)C1 (centres unmarked) ?
Result: ≥ 7.30

Query: // query: CCc1cc(Nc2ncc(Cl)c(Nc3ccc4nccnc4c3N(C)S(C)(=O)=O)n2)c(OC)cc1N1CCC(N2CCN(C)CC2)CC1
Result: ≥ 7.30

Query: // query: CCc1cc(Nc2ncc(Cl)c(Nc3ccc4nccnc4c3N(C)S(=O)(=O)CC)n2)c(OC)nc1N1CCC(N2CCN(C)CC2)CC1
Result: ≥ 7.30

Query: // query: CCc1cc(Nc2ncc(Cl)c(Nc3ccc4nccnc4c3N(C)S(C)(=O)=O)n2)c(OC)cc1N1CCC(N(C)C)C1 (centres unmarked)
Result: ≥ 7.30

Query: // query: CCN(c1c(Nc2nc(Nc3ccc(N4CCC(N5CCN(C)CC5)CC4)cc3OC)ncc2Cl)ccc2nccnc12)S(C)(=O)=O
Result: ≥ 7.30

Query: // query: COc1cc(N2CCC(N(C)C)C2)c(C)cc1Nc1ncc(C(F)(F)F)c(Nc2ccc3nccnc3c2N(C)S(C)(=O)=O)n1 (centres unmarked)
Result: ≥ 7.30

Query: // query: CCc1cc(Nc2ncc(F)c(Nc3ccc4nccnc4c3N(C)S(C)(=O)=O)n2)c(OC)cc1N1CCC(N(C)C)C1 (centres unmarked)
Result: ≥ 7.30

----------
Molecular target: various mutants of kinase EGFR (BaF3 cell lines stably transfected with kinase) (Homo sapiens)
Construct: other: BaF3 cells stably transfected with EGFR Δ19Del; MTS, 48 h; other: BaF3 cell line stably transfected with EGFR Δ19Del
Experiment: Growth inhibitory activity of compounds on BaF3 cell lines stably transfected with kinase (MTS, 48 h)
Format: cell-based
Settings: BaF3 cell line stably transfected with EGFR Δ19Del, read-out: Δ19Del growth inhibitory activity IC50
Method: The activity of compounds against various mutants of kinase EGFR was evaluated by their effect of inhibiting growth of BaF3 cell lines stably transfected with kinase. The specific test method was given as follows: […] 3) Compound test: cells were incubated into a 96-well culture plate, the volume of cytosol was 90 µL, and then 10 µL of the compound at each gradient concentration was added. […] OD values at 490 nm were measured by a microplate reader (VARIOSKAN FLASH, Thermo). […]
pIC50: −log10 of the molar value.
readout: pIC50

Worked examples, 4 compounds total:
1. COc1ccc(N2CCC(O)CC2)cc1Nc1nc(Nc2ccc3nccnc3c2N(C)S(C)(=O)=O)c2cc[nH]c2n1: 6.30 to 7.30
2. CCN(c1c(Nc2nc(Nc3cc(N4CCC(O)CC4)ccc3OC)ncc2Cl)ccc2nccnc12)S(C)(=O)=O: ≥ 7.30
3. CCc1cc(Nc2nc(Nc3ccc4nccnc4c3N(C)S(C)(=O)=O)c3sccc3n2)c(OC)cc1N1CCC(N2CCN(C)CC2)CC1: 6.30 to 7.30
4. CCn1cc(Nc2ncc(Br)c(Nc3ccc4nccnc4c3N(C)S(C)(=O)=O)n2)cn1: 6.30 to 7.30

Query: May I ask what pIC50 has been recorded for CN1CCN(C2CCN(c3c(F)cc(Nc4ncc(Br)c(Nc5ccc6nccnc6c5NS(C)(=O)=O)n4)cc3F)CC2)CC1 ?
Result: 6.30 to 7.30

Query: // query: CCc1cc(Nc2ncc(CC)c(Nc3ccc4nccnc4c3N(C)S(C)(=O)=O)n2)ccc1N1CCC(N2CCN(C)CC2)CC1
Result: ≥ 7.30

Query: // query: COc1ccc(N2CCC(O)CC2)cc1Nc1ncc(Br)c(Nc2ccc3nccnc3c2N(C2CC2)S(C)(=O)=O)n1
Result: ≥ 7.30

----------
Measured pIC50, listed per entry for reference.
target: various mutants of kinase EGFR (BaF3 cell lines stably transfected with kinase) (Homo sapiens, UniProt P00533, L858R/T790M); construct: expressed in transfected cells; host or cells: BaF3; test: Growth inhibitory activity of compounds on BaF3 cell lines stably transfected with kinase (MTS, 48 h); type: cell-based; conditions: BaF3 cells stably transfected with EGFR L858R/T790M, read-out: IC50, growth inhibition, L858R/T790M
Sequence (P00533 25-1210 T790M/L858R): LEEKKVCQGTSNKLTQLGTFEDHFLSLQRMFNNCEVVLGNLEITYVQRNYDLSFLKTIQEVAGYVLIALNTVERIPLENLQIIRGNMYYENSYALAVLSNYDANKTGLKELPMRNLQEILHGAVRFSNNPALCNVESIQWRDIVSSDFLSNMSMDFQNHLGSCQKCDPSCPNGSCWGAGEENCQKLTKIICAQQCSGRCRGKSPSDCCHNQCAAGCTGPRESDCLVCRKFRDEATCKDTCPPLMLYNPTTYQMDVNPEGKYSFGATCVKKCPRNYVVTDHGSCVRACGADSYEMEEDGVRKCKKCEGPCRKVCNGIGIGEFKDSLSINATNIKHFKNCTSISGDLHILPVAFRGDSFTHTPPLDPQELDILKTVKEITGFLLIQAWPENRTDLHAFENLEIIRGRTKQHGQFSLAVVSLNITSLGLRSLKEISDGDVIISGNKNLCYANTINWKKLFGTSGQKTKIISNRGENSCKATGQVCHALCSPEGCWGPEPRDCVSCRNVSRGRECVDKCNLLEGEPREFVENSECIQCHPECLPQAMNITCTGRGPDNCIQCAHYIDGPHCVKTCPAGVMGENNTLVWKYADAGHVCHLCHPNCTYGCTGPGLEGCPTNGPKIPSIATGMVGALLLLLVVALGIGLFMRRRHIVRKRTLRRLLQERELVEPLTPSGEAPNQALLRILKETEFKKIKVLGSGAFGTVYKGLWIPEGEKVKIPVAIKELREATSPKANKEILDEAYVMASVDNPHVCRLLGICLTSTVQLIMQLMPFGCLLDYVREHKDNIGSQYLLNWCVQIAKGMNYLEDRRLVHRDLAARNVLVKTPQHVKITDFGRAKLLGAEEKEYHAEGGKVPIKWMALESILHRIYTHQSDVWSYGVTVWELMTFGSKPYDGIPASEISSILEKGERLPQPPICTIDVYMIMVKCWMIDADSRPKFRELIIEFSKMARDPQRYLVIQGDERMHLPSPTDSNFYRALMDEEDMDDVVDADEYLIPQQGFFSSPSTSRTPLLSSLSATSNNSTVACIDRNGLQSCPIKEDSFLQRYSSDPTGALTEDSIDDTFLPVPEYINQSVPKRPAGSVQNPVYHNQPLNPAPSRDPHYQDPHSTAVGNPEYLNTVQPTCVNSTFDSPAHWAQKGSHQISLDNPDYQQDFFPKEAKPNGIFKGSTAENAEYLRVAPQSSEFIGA
pIC50: −log10 of the molar value.

1) CCc1cc(Nc2ncc(Br)c(Nc3ccc4nccnc4c3N(C)S(=O)(=O)C(C)C)n2)c(OC)cc1N1CCC(N(C)C)C1 (stereo not drawn): ≥ 7.30
2) C=Cc1cc(Nc2ncc(Cl)c(Nc3ccc4nccnc4c3N(C)S(=O)(=O)CC)n2)c(OC(F)(F)F)cc1N1CCC(N2CCN(C)CC2)CC1: 6.30 to 7.30
3) C=Cc1cc(Nc2ncc(Br)c(Nc3ccc4nccnc4c3N(C)S(=O)(=O)C(F)(F)F)n2)c(OC(F)(F)F)cc1N1CCC(N2CCN(C)CC2)CC1: 6.30 to 7.30
4) COc1cc(N2CCC(N3CCN(C)CC3)CC2)ccc1Nc1ncc(Br)c(Nc2ccc3nccnc3c2N(C2CC2)S(C)(=O)=O)n1: ≥ 7.30
5) CN1CCN(Cc2cccc(Nc3ncc(Br)c(Nc4ccc5nccnc5c4N(C)S(C)(=O)=O)n3)c2)CC1: ≥ 7.30

Query: May I ask what pIC50 has been recorded for CN1CCN(C2CCN(c3ccc(Nc4ncc(Cl)c(Nc5ccc6nccnc6c5N(C)S(C)(=O)=O)n4)c(OC(F)(F)F)c3)CC2)CC1 ?
Result: 6.30 to 7.30

----------
target: various mutants of kinase EGFR (BaF3 cell lines stably transfected with kinase) (Homo sapiens, UniProt P00533, T790M, form not given); construct: other: BaF3 cells stably transfected with EGFR Δ19Del/T790M; MTS, 48 h; other: BaF3 cell line stably transfected with EGFR Δ19Del/T790M; MTS, 48; assay: Growth inhibitory activity of compounds on BaF3 cell lines stably transfected with kinase (MTS, 48 h); type: cell-based; conditions: BaF3 cells stably transfected with EGFR Δ19Del/T790M, read-out: IC50, growth inhibition, Δ19Del/T790M
Sequence (P00533 with tags, fused parts or gaps DEL746-750/T790M, form open): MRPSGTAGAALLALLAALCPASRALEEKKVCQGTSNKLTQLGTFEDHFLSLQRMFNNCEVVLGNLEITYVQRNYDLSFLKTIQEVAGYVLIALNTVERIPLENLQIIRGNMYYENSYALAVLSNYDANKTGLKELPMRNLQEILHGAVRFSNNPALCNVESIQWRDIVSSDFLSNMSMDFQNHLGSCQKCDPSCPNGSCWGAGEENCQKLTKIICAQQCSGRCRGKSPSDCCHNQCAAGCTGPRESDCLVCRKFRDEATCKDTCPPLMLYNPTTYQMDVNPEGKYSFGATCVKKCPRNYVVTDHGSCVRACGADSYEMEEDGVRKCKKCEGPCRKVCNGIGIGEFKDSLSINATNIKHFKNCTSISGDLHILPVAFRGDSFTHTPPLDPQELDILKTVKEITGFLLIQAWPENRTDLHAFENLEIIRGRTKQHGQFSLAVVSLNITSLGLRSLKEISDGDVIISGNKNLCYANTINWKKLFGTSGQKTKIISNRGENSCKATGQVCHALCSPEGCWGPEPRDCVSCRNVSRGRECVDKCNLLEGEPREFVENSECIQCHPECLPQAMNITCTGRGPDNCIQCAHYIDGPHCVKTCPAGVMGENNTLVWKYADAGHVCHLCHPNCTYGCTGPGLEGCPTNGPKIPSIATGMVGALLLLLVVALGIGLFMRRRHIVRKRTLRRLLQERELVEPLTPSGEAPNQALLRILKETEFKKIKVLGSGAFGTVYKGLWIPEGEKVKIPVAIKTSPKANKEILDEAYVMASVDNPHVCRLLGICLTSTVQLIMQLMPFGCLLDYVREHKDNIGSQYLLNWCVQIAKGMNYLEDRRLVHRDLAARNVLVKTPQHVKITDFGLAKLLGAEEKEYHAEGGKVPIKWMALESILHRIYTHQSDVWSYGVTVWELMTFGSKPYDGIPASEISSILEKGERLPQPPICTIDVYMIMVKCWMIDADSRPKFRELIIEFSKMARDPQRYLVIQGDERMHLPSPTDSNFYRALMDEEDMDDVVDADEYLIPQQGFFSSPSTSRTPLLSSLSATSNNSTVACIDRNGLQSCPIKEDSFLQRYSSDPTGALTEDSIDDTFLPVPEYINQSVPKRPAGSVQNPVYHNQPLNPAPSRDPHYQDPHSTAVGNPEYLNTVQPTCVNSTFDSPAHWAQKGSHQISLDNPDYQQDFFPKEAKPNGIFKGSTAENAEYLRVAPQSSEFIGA
pIC50: −log10 of the molar value.
readout: pIC50

Worked examples, 2 compounds total:
1. CCc1cc(Nc2ncc(Br)c(Nc3ccc4nccnc4c3N(C)S(=O)(=O)CC)n2)c(OC)cc1N1CCC(N(C)C)CC1: ≥ 7.30
2. CCc1cc(Nc2ncc(Cl)c(Nc3ccc4nccnc4c3N(CC)S(C)(=O)=O)n2)c(OC)cc1N1CCC(N(C)C)C1 (stereo not drawn): ≥ 7.30

Next compound, pIC50 to be filled in.
Query: May I ask what pIC50 has been recorded for CN1CCN(C2CCN(c3cccc(Nc4ncc(Br)c(Nc5ccc6nccnc6c5N(C)S(C)(=O)=O)n4)c3)CC2)CC1 ?
Result: 6.30 to 7.30

Origin of values: patent US20230310428A1
